Where do these numbers come from? They come from ChEMBL document CHEMBL1149451.

We begin with a simple list: items and their reported residual activity.
Biological target: Protein kinase C gamma type (Rattus norvegicus)
Test: Inhibition of rat PKC gamma expressed in Sf9 cells at 100 uM
Conditions: values are per cent of control
PARAMETER MEASURED: residual activity (%)

>>> df
                                   molecule  observed
0   O=C1NC(=O)c2c1c1ccccc1c1[nH]c3ccccc3c21        90
1  COc1cc(C2=C(c3c[nH]c4ccccc34)C(=O)NC2=O)cc(OC)c1OC [MALEIMIDE]        77
2          O=C1NC(=O)C(c2ccccc2)=C1c1ccccc1       105
